Cited source: patent US7244727B2

READOUT LABEL: melting point

Please review the following examples before continuing.
Q: I am curious: what melting point value has been reported for `Cc1nc(N)c2c(n1)OC(C)(C)C(c1ccc([C@H]3CC[C@H](CC(=O)O)CC3)c(O)c1)=N2` ?
Result: > 280 °C

Q: I am curious: what melting point value has been reported for `Cc1nc(N)c2c(n1)OC(C)(C)C(c1ccc([C@H]3CC[C@H](CCc4nc(=O)[nH]n4C)CC3)cc1)=N2` ?
Result: > 250 °C

Q: I am curious: what melting point value has been reported for `Cc1nc(N)c2c(n1)OC(C)(C)C(c1ccc([C@H]3CC[C@H](Cc4nc(=O)o[nH]4)CC3)cc1)=N2` ?
Result: > 250 °C

More entries:
Q: I am curious: what melting point value has been reported for `CN(C)C(=O)CC[C@H]1CC[C@H](c2ccc(C3=Nc4c(N)ncnc4OC3(C)C)cc2)CC1` ?
Result: 200 to 201 °C

Q: I am curious: what melting point value has been reported for `CC1(C)Oc2ncnc(N)c2N=C1c1ccc([C@H]2CC[C@H](CN3CCNCC3)CC2)cc1` ?
Result: 208 to 209 °C

Q: I am curious: what melting point value has been reported for `CC1(C)Oc2ncnc(N)c2N=C1c1ccc([C@H]2CC[C@H](CC(=O)N3CCCCC3)CC2)cc1` ?
Result: 146 to 147 °C

Q: I am curious: what melting point value has been reported for `CCOC(=O)C1CCN(c2ccc(C3=Nc4c(N)ncnc4OC3(C)C)cc2)CC1` ?
Result: 176 to 177 °C

Q: I am curious: what melting point value has been reported for `CC1(C)Oc2ncnc(N)c2N=C1c1ccc(C(C)(C)C)cc1` ?
Result: 220 °C

* * *

Overview of recorded IC50 for various molecules
Target sequence: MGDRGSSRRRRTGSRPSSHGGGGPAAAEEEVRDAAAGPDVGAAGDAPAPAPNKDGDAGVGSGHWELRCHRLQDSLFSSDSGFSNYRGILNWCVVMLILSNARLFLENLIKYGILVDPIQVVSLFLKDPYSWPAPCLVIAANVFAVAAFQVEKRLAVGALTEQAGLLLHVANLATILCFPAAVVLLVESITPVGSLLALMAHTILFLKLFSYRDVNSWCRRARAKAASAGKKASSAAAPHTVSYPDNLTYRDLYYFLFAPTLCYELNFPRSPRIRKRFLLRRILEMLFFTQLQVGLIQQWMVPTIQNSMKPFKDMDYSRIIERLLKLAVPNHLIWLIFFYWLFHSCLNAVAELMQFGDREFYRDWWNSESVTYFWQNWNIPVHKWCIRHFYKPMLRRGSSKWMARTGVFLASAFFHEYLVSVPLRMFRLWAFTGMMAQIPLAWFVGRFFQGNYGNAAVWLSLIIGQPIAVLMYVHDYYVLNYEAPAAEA

Q: I am curious: what IC50 value has been reported for Cc1nc(N)c2c(n1)OC(C)(C)C(c1ccc([C@H]3CC[C@H](CC(=O)N4CC(O)C(O)C4)CC3)cc1)=N2 (stereo partly drawn) ?
Result: 0.01 to 0.1 µM

Q: I am curious: what IC50 value has been reported for `Cc1nc(N)c2c(n1)OC(C)(C)C(c1ccc([C@H]3CC[C@H](Cc4nn[nH]n4)CC3)cc1)=N2` ?
Result: < 0.01 µM

Q: I am curious: what IC50 value has been reported for Cc1nc(N)c2c(n1)OC(C)(C)C(c1ccc3c(c1)CCC31CCC(C3(C(=O)O)CC3)CC1)=N2 (stereo not drawn) ?
Result: 0.01 to 0.1 µM

Q: I am curious: what IC50 value has been reported for Cc1nc(N)c2c(n1)OC(C)(C)C(c1ccc(C3CCC([C@H](C)C(=O)O)CC3)cc1)=N2 (stereo partly drawn) ?
Result: 0.01 to 0.1 µM

Q: I am curious: what IC50 value has been reported for `CC1(C)Oc2ncnc(N)c2N=C1c1ccc([C@H]2CC[C@H](NS(N)(=O)=O)CC2)cc1` ?
Result: 0.01 to 0.1 µM
